meta.source: PubChem BioAssay

- run_description: small-molecule microarray binders of probe aShh, primary screen, biochemical, biotinylated probe, 635/667 nm fluorescence (AID 1114);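 note: probe is biotin-labelled aShh protein from a stem cell growth factor screen; measures binding of labelled protein to compounds printed on the slide; score merges feature fluorescence at 667 nm with signal-to-noise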
- conditions_used: higher = more signal
Just so you know, the groups by composite z-score go like this: low bracket (below -0.08), middle bracket (-0.08 to below 0.1), high bracket (0.1 or more)

* C=CCOC(=O)[C@H]1[C@@H]2C(=O)O[C@@H](c3ccccc3)[C@@H](c3ccccc3)N2[C@@H](c2ccc(OCCOC(=O)[C@H]3C[C@H]4C(=O)N[C@@H](CCCCN(C)C)C(=O)N4[C@H]3c3ccc(O)cc3)cc2)[C@]12C(=O)Nc1ccc(I)cc12 | high bracket
* CC(=O)NCCCC[C@@H]1NC(=O)[C@H]2C[C@@H](C(=O)NCCCCCCNC(=O)CS)[C@@H](c3ccc(O)cc3)N2C1=O | high bracket
* COc1ccc(CCNC(=O)[C@@]2(Sc3ccc(C)cc3)CC(=O)N(C(C)C)[C@@H]2c2ccc(CO)cc2I)cc1 | middle bracket
* CC(C)C(=C=CC[C@@H](O)c1ccc(OCCO)cc1)C[C@@H](O)c1ccccn1 | middle bracket
* CN1C(=O)C2C=CC(C(O)C3CC=CCC3)N(N(c3ccccc3)c3ccccc3)C2C1=O (configuration not stated) | middle bracket
* C=CCC(OC(C)=O)[C@@H]1[C@@H](N(Cc2ccc(-c3ccccc3)cc2)C(=O)Cc2ccc(OC)cc2)c2cc(OCCCO)ccc2N1C(=O)Cc1ccc2ccccc2c1 (some centres not stated) | middle bracket

## Input Tag the class for COC(=O)[C@@]1(Cc2ccccc2)[C@H]2c3cc(C(=O)N(C)C)n(Cc4ccsc4Br)c3C[C@H]2CN1C(=O)c1ccccc1
## Output high bracket

## Input Follow-up item: C=CCC(OC(C)=O)[C@@H]1[C@@H](N(Cc2ccc(-c3cccc(C(F)(F)F)c3)o2)C(=O)c2ccc(C)cc2)c2cc(OCCCO)ccc2N1C(=O)Cc1ccc2ccccc2c1 (some centres not stated)
## Output low bracket

## Input Follow-up item: O=C1c2ccccc2[C@](Cc2ccccc2I)(C(=O)NCCN2CCOCC2)[C@H](c2ccc(CO)cc2)N1Cc1ccccc1Cl
## Output middle bracket

## Input Follow-up item: C=C(/C(=C/C[C@H](OC(C)=O)c1ccc(CO)o1)c1cc(C(=O)OC)ccc1OC)C(C)C
## Output high bracket

## Input Follow-up item: C=CCNC(=O)[C@@H]1[C@H]2C(=O)O[C@H](c3ccccc3)[C@H](c3ccccc3)N2[C@H](c2ccc(O)cc2)[C@@]12C(=O)Nc1ccc(C#CCNC(N)=O)cc12
## Output high bracket

---

- run_description: E. coli acrAB mutant growth effects, primary screen, E. coli filamentation inducers, strain DRC39, OD650, 24 h (AID 1178);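 note: growth measured as culture turbidity by optical density at 650 nm; test concentration not given here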
- conditions_used: higher = more signal, called active from +8 up or from −8 down
measure_name: z-score
// no unit string in output, number only

Some compounds with known z-score results, for comparison:
* COC(=O)[C@]1(CCC(=O)OC(C)(C)C)N=C(c2ccc(OCCCO)cc2)O[C@@H]1c1ccccc1CN=[N+]=[N-] | 0.637
* COc1ccc(C#Cc2ccc3c(c2)[C@]2(C(=O)N3)[C@H](c3ccccc3OCCO)N3[C@H](c4ccccc4)[C@H](c4ccccc4)OC(=O)[C@H]3[C@@H]2C(=O)Nc2nc3ccccc3s2)cc1 | 0.0225
* Cc1ccc(S[C@]2(C(=O)NC3CC3)CC(=O)N(Cc3ccccc3)[C@@H]2c2ccc(CO)cc2I)cc1 | 0.714

## Input Form field: reported z-score of C[C@H]1NC(=O)[C@@]23C(=O)N[C@@H](Cc4ccccc4)C2[C@H](C)[C@@]2(C)O[C@H]2C3/C=C/C/C=C\CNC(=O)[C@@H]2CCCN2C1=O (some centres not stated)
## Output 0.901

## Input Follow-up item: NCCCCCCNC(=O)[C@@H]1C[C@@H]2C(=O)NCC(=O)N2[C@@H]1c1ccc(O)cc1
## Output -0.0366

## Input Follow-up item: COc1cc(COC(C)=O)ccc1OC(C)=O
## Output 1.17

## Input Follow-up item: COC(=O)[C@@]1(Cc2ccccc2)[C@H]2c3cc(C(=O)N(C)C)n(Cc4ccsc4Br)c3C[C@H]2CN1C(=O)c1ccccc1
## Output 0.156
